The measured values listed here are drawn from patent US9458153B2.

- Test system: HBsAg
- PROTOCOL DESCRIPTION: HBsAg assay (chemiluminescence immunoassay of secreted HBsAg in HepG2.2.15 culture supernatant)
- Type: cell-based, HBV
- ASSAY CONTEXT: Hepatitis B virus, HepG2.2.15, HBsAg secretion reduced by 50% vs no drug control; HepG2.2.15 cells; CLIA kit
- Procedure: HepG2.2.15 cells (Acs et al. Proc Natl Acad Sci USA, 84, (1987), 4641-4), a constitutively HBV-expressing cell line were cultured in DMEM+Glutamax-I medium (Invitrogen, Carlsbad, Calif., USA), supplemented with 10% fetal bovine serum (Invitrogen) and G418 (Invitrogen) at a final concentration of 200 mg/L and maintained in 5% CO2 at 37° C. HepG2.2.15 cells were seeded in duplicate into white, 96-well plates at 1.5×10^4 cells/well. […]
Our labelling divides records by IC50 into ranges: class 0: < 50 nM; class 1: ≥ 50 nM and < 300 nM; class 2: ≥ 300 nM

Sample answers from the record:
>>> df
                                   molecule  assigned_class
0  COc1cc2c(cc1OC)C(C)Cn1cc(C(=O)O)c(=O)cc1-2 (centres unmarked) [Example 69]         class 2
1  CC[C@@H]1Cc2cc(OCCN3CCCC3=O)c(OC)cc2-c2cc(=O)c(C(=O)O)cn21 [Example 55]         class 2
2  COc1cc2c(cc1Cl)-c1cc(=O)c(C(=O)O)cn1C(C)C2 (centres unmarked) [Example 65]         class 2
3  COc1cc2c(cc1OCCCN1CCCC1=O)CC(C(C)(C)C)n1cc(C(=O)O)c(=O)cc1-2 (centres unmarked) [Example 195]         class 1
4  COCCOc1cc(Cl)c2c(c1)CC(C(C)C)n1cc(C(=O)O)c(=O)cc1-2 (centres unmarked) [Example 111]         class 0

Query: Each molecule maps to one class by IC50. Which class for COc1cc2c(cc1OC)-c1cc(=O)c(C(=O)O)cn1C(C1CC1)C2 (centres unmarked) [Example 97] ?
Response: class 1

Query: Each molecule maps to one class by IC50. Which class for CCOc1cc2c(cc1OCC)-c1cc(=O)c(C(=O)O)cn1C(C)C2 (centres unmarked) [Example 74] ?
Response: class 1

Query: Each molecule maps to one class by IC50. Which class for C#CCOc1cc2c(cc1OC)-c1cc(=O)c(C(=O)O)cn1C(CC)C2 (centres unmarked) [Example 17] ?
Response: class 1

Query: Each molecule maps to one class by IC50. Which class for CCOc1cc2c(cc1OCC)-c1cc(=O)c(C(=O)O)cn1CC2 [Example 76] ?
Response: class 2

Query: Each molecule maps to one class by IC50. Which class for CC1Cc2cc(N3CCN(C(=O)OC(C)(C)C)CC3)ccc2-c2cc(=O)c(C(=O)O)cn21 (centres unmarked) [Example 62] ?
Response: class 2

Query: Each molecule maps to one class by IC50. Which class for CCOc1ccc(Br)c2c1-c1cc(=O)c(C(=O)O)cn1C(CC)C2 (centres unmarked) [Example 94] ?
Response: class 2

Query: Each molecule maps to one class by IC50. Which class for COc1cc2c(cc1OCCCOCCN)CC(C(C)(C)C)n1cc(C(=O)O)c(=O)cc1-2 (centres unmarked) [Example 178] ?
Response: class 1

Query: Each molecule maps to one class by IC50. Which class for CCCOc1cc2c(cc1OCCC)-c1cc(=O)c(C(=O)O)cn1CC2 [Example 77] ?
Response: class 2

Query: Each molecule maps to one class by IC50. Which class for CNc1cccc2c1-c1cc(=O)c(C(=O)O)cn1C(C)C2 (centres unmarked) [Example 64] ?
Response: class 2

Query: Each molecule maps to one class by IC50. Which class for CCC1Cc2cc(OCCC3CCCCC3)c(OC)cc2-c2cc(=O)c(C(=O)O)cn21 (centres unmarked) [Example 16] ?
Response: class 0

Query: Each molecule maps to one class by IC50. Which class for CCC1Cc2cc(OCCN3CCCC3)c(OC)cc2-c2cc(=O)c(C(=O)O)cn21 (centres unmarked) [Example 51] ?
Response: class 2

Query: Each molecule maps to one class by IC50. Which class for CCC(F)(F)Oc1cc2c(cc1OC)-c1cc(=O)c(C(=O)O)cn1C(C(C)(C)C)C2 (centres unmarked) [Example 181] ?
Response: class 0
